# System: human NK2 receptors (Homo sapiens)
# Construct: expressed in transfected cells; host or cells: MEL cells (membranes)
# Sequence (P21452 whole entry): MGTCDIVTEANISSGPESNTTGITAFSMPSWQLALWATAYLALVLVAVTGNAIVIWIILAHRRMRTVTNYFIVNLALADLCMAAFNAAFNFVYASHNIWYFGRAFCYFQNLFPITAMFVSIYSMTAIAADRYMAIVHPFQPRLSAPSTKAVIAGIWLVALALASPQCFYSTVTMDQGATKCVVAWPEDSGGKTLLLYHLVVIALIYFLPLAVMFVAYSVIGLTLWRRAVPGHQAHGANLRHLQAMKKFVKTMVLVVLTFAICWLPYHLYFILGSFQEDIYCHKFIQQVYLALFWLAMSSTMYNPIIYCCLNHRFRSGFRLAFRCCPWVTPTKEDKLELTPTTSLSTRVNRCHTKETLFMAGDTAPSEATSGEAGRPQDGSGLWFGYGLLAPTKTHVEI
# Experiment: In vitro receptor binding assay, [3H]NKA in MEL cell membranes expressing cloned human NK2 receptors
# Condition Label: inhibition of [3H]NKA binding to cloned hNK2 receptors in MEL cell membranes; read-out: hNK2 (Ki expressed as -Log Molar) (converted)
Measurement Label: Ki (nM)

{"columns": ["Compound", "System", "Data Value"],
 "data": [
  ["CCN1CCCN(C2CCN(CC[C@H](CN(C)C(=O)c3ccccc3)c3ccc(Cl)c(Cl)c3)CC2)C1=O.O=C(O)CC(O)(CC(=O)O)C(=O)O [Example 2, citrate]", "human NK2 receptors (Homo sapiens)", 0.245],
  ["CN(C[C@@H](CCN1CCC(N2CCCNC2=O)CC1)c1ccc(Cl)c(Cl)c1)C(=O)c1ccc(F)cc1.O=C(O)CC(O)(CC(=O)O)C(=O)O [Example 4, citrate]", "human NK2 receptors (Homo sapiens)", 1.74],
  ["CN(C[C@@H](CCN1CCC(N2CCCNC2=S)CC1)c1ccc(Cl)c(Cl)c1)C(=O)c1ccccc1.Cl.Cl [Example 5, dihydrochloride]", "human NK2 receptors (Homo sapiens)", 1.38],
  ["CCN(C[C@@H](CCN1CCC(N2CCCNC2=O)CC1)c1ccc(Cl)c(Cl)c1)C(=O)c1ccccc1", "human NK2 receptors (Homo sapiens)", 1.41],
  ["CN(C[C@@H](CCN1CCC(N2CC(C)(C)CNC2=O)CC1)c1ccc(Cl)c(Cl)c1)C(=O)c1ccccc1", "human NK2 receptors (Homo sapiens)", 0.55]
]}

Recorded values, source patent US20040248914A1.
